- testTarget: Zea mays bx9 glucosyl transferase (C-terminally his tagged SEQ ID NO: 1) (Zea mays, UniProt B4G072)
- Construct: His tag (C); made in house; host or cells: E. coli BL21 (DE3), pET24a
- Sequence (B4G072 whole entry): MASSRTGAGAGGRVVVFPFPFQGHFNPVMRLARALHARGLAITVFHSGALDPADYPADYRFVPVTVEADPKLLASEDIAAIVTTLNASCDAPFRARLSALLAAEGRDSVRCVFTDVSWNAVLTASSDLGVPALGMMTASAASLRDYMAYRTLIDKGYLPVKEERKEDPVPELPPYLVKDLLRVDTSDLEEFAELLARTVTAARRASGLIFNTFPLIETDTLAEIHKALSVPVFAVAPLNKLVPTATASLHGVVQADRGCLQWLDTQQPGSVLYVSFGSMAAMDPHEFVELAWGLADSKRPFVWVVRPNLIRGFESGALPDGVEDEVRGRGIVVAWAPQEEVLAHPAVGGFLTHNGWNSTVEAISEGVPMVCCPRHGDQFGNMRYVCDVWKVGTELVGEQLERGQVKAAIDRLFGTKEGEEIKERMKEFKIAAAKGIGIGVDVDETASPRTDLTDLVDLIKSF
- measurementNotes: UDP-Glo glucosyl transferase assay, purified enzyme
- Assay type: biochemical
- experimentalContext: herbicide 0.500 mM; limit of detection about 0.001
Exercise: state measured Activity for each of the compounds provided.
Write the value in pmol/sec/pmol enzyme as a bare number.

Provide one value: measured Activity of CN1CC(O)N(c2cc(C(F)(F)F)c(Cl)cn2)C1=O (stereo not shown) [XI]
0.000

Retrieve Activity measured for CN1CC(O)N(c2cc(C(F)(F)F)ccn2)C1=O (stereo not shown) [Compound V] and print it.
0.005

Please report Activity for the following compound: CON1C(=O)N(c2cc(C(F)(F)F)ccn2)C(O)[C@@H]1C (stereo partly shown) [Compound VI]
0.013

Identify measured Activity corresponding to Cc1cnc(N2C(=O)N(C)CC2O)cc1C(F)(F)F (stereo not shown) [XVIII]
0.002

The reported measurements were obtained from patent US20200270588A1.
